tested system: DGAT1 in C2C12 cells (Mus musculus, UniProt Q9Z2A7)
Construct: endogenous in cells; host or cells: C2C12 mouse skeletal muscle cells
Sequence (Q9Z2A7 1-498): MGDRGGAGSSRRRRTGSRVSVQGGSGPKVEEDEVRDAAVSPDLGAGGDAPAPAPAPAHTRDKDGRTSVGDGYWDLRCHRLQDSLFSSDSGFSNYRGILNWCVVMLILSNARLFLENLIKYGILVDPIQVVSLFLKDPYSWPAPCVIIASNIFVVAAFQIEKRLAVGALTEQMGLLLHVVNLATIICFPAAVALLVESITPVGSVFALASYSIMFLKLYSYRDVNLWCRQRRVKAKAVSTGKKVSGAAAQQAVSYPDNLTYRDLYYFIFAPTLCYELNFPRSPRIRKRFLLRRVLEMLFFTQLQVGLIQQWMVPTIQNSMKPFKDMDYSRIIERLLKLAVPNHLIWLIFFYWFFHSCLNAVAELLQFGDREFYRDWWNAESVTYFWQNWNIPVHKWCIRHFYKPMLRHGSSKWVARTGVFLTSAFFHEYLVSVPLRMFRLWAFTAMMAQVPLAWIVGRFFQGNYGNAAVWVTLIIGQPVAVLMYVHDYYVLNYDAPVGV
assay explanation: Cellular assay to measure activity of DGAT1 inhibitors in mammalian cells (C2C12)
Format: cell-based
condition notes: heading: DGAT1-C2C12 IC50; C2C12 mouse skeletal muscle cells, 250 μM oleate, 2 h, LC/MS readout
quantity: IC50 (µM)
Give the number; µM is assumed, so skip it.

Give the measured IC50 for O=C(O)CC12CCC(c3ccc(-c4ccc(Nc5nnc(C6CC6)o5)cc4)cc3)(CC1)CO2 0.528

Each recorded value in this set is attributed to patent US8993619B2.
